Source: paper PMC10958042

B1: ATGL (PNPLA2, patatin-like phospholipase domain-containing protein 2), human, full length / CIDEC (FSP27), human (parent)
chain 1: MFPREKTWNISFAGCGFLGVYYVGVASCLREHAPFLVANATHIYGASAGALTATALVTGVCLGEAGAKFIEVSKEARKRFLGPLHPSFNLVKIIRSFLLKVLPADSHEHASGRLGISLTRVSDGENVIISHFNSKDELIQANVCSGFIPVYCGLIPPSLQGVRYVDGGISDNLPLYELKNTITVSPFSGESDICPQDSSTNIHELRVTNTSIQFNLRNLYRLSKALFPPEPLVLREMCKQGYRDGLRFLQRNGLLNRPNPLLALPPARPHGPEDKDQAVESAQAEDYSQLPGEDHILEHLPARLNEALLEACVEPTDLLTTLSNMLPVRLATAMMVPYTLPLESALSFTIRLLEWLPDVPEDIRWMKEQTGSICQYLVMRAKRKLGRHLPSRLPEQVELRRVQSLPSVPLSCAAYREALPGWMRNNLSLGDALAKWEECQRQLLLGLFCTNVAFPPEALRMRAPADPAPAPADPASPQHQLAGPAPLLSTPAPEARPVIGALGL
chain 2: MEYAMKSLSLLYPKSLSRHVSVRTSVVTQQLLSEPSPKAPRARPCRVSTADRSVRKGIMAYSLEDLLLKVRDTLMLADKPFFLVLEEDGTTVETEEYFQALAGDTVFMVLQKGQKWQPPSEQGTRHPLSLSHKPAKKIDVARVTFDLYKLNPQDFIGCLNVKATFYDTYSLSYDLHCCGAKRIMKEAFRWALFSMQATGHVLLGTSCYLQQLLDATEEGQPPKGKASSLIPTCLKILQ

- Variants of: B1
- Assay notes: LUMIER: Protein A-ATGL variant and firefly luciferase-partner co-expressed in HEK293T, lysates immunoprecipitated on IgG-coated plates, co-precipitated partner measured as luciferase luminescence
- Condition notes: with CIDEC (FSP27), transient co-transfection, IgG-coated LUMITRAC plates, 2 h at 4 °C, three PBS washes, Bright-Glo luciferase reagent, triplicates per assay, two …, parent: 0.17, not graded, scale: log2 fold change of co-immunoprecipitated luminescence relative to wild-type ATGL within each experiment
Readout kind: screen value

Variant label: chain 1 G153A
Readout kind: screen value
Quantitative readout: -0.268

Variant label: chain 1 P86K
Readout kind: screen value
Quantitative readout: 0.081

Variant label: chain 1 R95K
Readout kind: screen value
Quantitative readout: -0.0915

Variant label: chain 1 Q140A
Readout kind: screen value
Quantitative readout: 0.722

Variant label: chain 1 P103K
Readout kind: screen value
Quantitative readout: -0.241

Variant label: chain 1 E368A
Readout kind: screen value
Quantitative readout: -0.223

Variant label: chain 1 G153K
Readout kind: screen value
Quantitative readout: -0.57

Variant label: chain 1 R163K
Readout kind: screen value
Quantitative readout: 0.652
